biological target: Syk (Homo sapiens (Human), UniProt P43405); experiment: KinaseProfiler off-target kinase profiling; assay type: biochemical; settings: 10 μM, ATP near Km
reported endpoint: Avg. POC (POC)
Lab book: enter the figure in POC, no units written.

| molecule | reported endpoint | measured result |
| --- | --- | --- |
| Cc1c(-c2cnn(C)c2)nn(-c2ccccc2)c1NC(=O)N[C@H]1CCCc2ccccc21 | Avg. POC | 115 |
| Cc1c(-c2ccc(=O)n(C)c2)nn(-c2ccccc2)c1NC(=O)NC1CN(CC(F)(F)F)Cc2ccccc21 (stereo not shown) | Avg. POC | 93.5 |
| COCc1ccc2c(c1)C(NC(=O)Nc1c(C)c(-c3cnn(C)c3)nn1-c1ccccc1)COC2 (stereo not shown) | Avg. POC | 115 |

--- query ---
I'm curious: which Avg. POC was measured for Cc1c(-c2cnn(C)c2)nn(-c2ccccc2)c1NC(=O)NC1CCOc2cc(F)ccc21 (stereo not shown) tested on Syk (Homo sapiens (Human), UniProt P43405)?
108.5

FYI, the data here is from patent US10351575B2.
